assay: in vivo; details: male, C57BL/6, mouse, iv, 2 mg/kg, VSS, C57BL/6, 2 mpk, i.v.
experimental-endpoint: Vd (L/kg)
State the answer as a number, implicitly in L/kg.

# Vd lookup, item O=c1c2c3nc(n2Cc2ccc(Cl)cc2)Oc2ccc(F)c(c2)OCCCCCCn3c(=O)n1CCCO
3.51

---

assay: in vivo; details: male, C57BL/6, mouse, iv, 2 mg/kg, B/P, 45 min
experimental-endpoint: Kp
Output spec: single numeric token, no unit.

Tell me the measured Kp of O=c1c2c3nc(n2Cc2ccc(Cl)cc2)Oc2ccc(F)c(c2)OCCCCCCn3c(=O)n1CCCO , please.
3.85
